# TARGET_DESC: ROCKII (1-543) (Homo sapiens, UniProt O75116)
# Sequence (O75116 1-543, species assumed): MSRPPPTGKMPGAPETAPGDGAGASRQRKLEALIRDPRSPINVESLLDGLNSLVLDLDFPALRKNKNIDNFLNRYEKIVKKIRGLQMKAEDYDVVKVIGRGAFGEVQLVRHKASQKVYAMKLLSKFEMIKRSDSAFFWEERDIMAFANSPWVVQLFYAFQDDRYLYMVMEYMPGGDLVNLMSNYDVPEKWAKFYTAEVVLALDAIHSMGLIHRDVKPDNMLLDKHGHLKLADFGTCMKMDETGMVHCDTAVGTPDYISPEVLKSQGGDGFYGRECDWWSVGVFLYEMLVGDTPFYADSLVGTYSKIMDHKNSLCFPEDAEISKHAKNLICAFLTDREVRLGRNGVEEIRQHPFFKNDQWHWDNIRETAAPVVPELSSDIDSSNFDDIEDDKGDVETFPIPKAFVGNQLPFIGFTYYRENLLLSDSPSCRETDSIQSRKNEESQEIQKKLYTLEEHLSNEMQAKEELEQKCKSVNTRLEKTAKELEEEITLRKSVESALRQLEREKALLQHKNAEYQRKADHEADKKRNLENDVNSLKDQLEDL
# ASSAY: IMAP Assay (fluorescence polarization, FAM S6 peptide)
# Format: biochemical
# Parameters: 3 nM ROCKII (1-543) diluted in kinase reaction buffer
# CONDITIONS_USED: IMAP FP, 1 nM ROCKII (1-543), 100 μM ATP; read-out: Assay 2 IC50
# Description: This assay is performed using FAM S6 substrate peptide (Catalogue #R7184) and IMAP FP Screening Express Kit detection reagents from Molecular Devices (Sunnyvale, Calif.) in IMAP kinase reaction buffer (Tris-HCl, pH 7.2, 10 mM MgCl2, 0.05% NaN3, 0.1% phosphate-free BSA) containing 1 mM DTT. […] Where A, B, C, and D are fitted parameters (parameter B is fixed at zero POC), and x and y are the independent and dependent variables, respectively. The IC50 is determined as the inflection point parameter, C.
pIC50: −log10 of the molar value. Where a name gives a salt, the structure may show the parent alone.
REPORTED_METRIC: pIC50

1) N#Cc1ccc(-c2cn(Cc3cccc(C(=O)Nc4nc5c(s4)CC(N4CCC(F)CC4)CC5)c3)nn2)cc1 (stereo not shown) [Compound 42]    8.96
2) CN1CCc2nc(NC(=O)c3cccc(Cn4cc(-c5ccc(C#N)cc5)nn4)c3)sc2C1 [Compound 2]    7.96
3) N#Cc1ccc(-c2cnn(Cc3cccc(C(=O)Nc4nc5c(s4)CC(N4CCC(F)CC4)CC5)c3)c2)cc1 (stereo not shown) [Compound 18, trifluoroacetate]    9.18
4) CN1CCN([C@H]2CCc3nc(NC(=O)c4cccc(Cn5cc(-c6ccc(C#N)cc6)cn5)c4)sc3C2)CC1 [Compound 25]    9.19
5) CN1CCN(C2CCc3nc(NC(=O)c4cccc(Cn5cc(-c6ccc(C#N)cc6)cn5)c4)sc3C2)CC1 (stereo not shown) [Compound 11]    9.24
6) CN1CCN(C2CCc3nc(NC(=O)c4cccc(Cn5cc(-c6ccc(C#N)cc6)nn5)c4)sc3C2)CC1 (stereo not shown) [Compound 23]    8.89
7) COCCN(C)C1CCc2nc(NC(=O)c3cccc(Cn4cc(-c5ccc(C#N)cc5)nn4)c3)sc2C1 (stereo not shown) [Compound 24]    8.59
8) CN(CCC(F)(F)F)[C@H]1CCc2nc(NC(=O)c3cccc(Cn4cc(-c5ccc(C#N)cc5)nn4)c3)sc2C1 [Compound 31]    8.51
9) N#Cc1ccc(-c2cn(Cc3cccc(C(=O)Nc4nc5c(s4)C[C@@H](N4CCOCC4)CC5)c3)nn2)cc1 [Compound 8]    9.00
10) N#Cc1ccc(-c2cnn(Cc3cccc(C(=O)Nc4nc5c(s4)C[C@@H](N)CC5)c3)c2)cc1 [Compound 28]    9.46
11) N#Cc1ccc(N2CCN(Cc3cccc(C(=O)Nc4nc5c(s4)C[C@@H](N4CCOCC4)CC5)c3)C2=O)cc1 [Compound 6]    8.89
12) C[C@@H]1CN(C2CCc3nc(NC(=O)c4cccc(Cn5cc(-c6ccc(C#N)cc6)cn5)c4)sc3C2)C[C@H](C)O1 (stereo partly shown) [Compound 26]    8.41
13) N#Cc1ccc(-c2nnc(Cc3cccc(C(=O)Nc4nc5c(s4)C[C@@H](N4CCOCC4)CC5)c3)o2)cc1 [Compound 40]    7.92
14) N#Cc1ccc(-c2cnn(Cc3cccc(C(=O)Nc4nc5c(s4)C[C@@H](NCCC(F)(F)F)CC5)c3)c2)cc1 [Compound 20]    9.33
15) N#Cc1ccc(-c2cn(Cc3cccc(C(=O)Nc4nc5c(s4)C[C@@H](NCCC(F)(F)F)CC5)c3)nn2)cc1 [Compound 22]    8.96
16) COCCN[C@H]1CCc2nc(NC(=O)c3cccc(Cn4cc(-c5ccc(C#N)cc5)cn4)c3)sc2C1 [Compound 45]    9.46
